# Test system: CAMK2A;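 further: KINOMEscan kinase panel screen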
# condition: concentration: 1 μM, replicates: in singlicate; n = 1
measurement_kind: %Inh (%)
One number for each entry, in %.

Answered cases to consult:
Cc1cccc(-c2nc(-c3ccc(S(C)(=O)=O)cc3)sc2-c2ccncc2)c1    0
CC(=O)Nc1ccc(COc2ccc(Nc3ccnc4cc(-c5ccccn5)ccc34)cc2)cc1.Cl    0
NS(=O)(=O)c1cccc(-c2ccc3ncc(N4CCOCC4)nc3c2)c1    0
Cc1ccc(NC(=O)c2ccnc(N3CCN(C)CC3)c2)cc1-c1ccc(C(=O)NCC2CC2)cc1    0
O=C(NCCNc1ccnc(Nc2ccc(F)cc2)n1)Nc1ccccc1F    0

// each molecule listed below needs its %Inh
1. Cc1c2ccc(N(C)c3ccnc(Nc4cccc(S(N)(=O)=O)c4)n3)cc2nn1Cc1ccccc1.Cl.Cl
2. [2H]C([2H])(c1cccc(C(F)(F)F)c1C)n1ccn2c(=O)nc(N3CCOCC3)cc12
3. O=c1cc(N2CCOCC2)nc2n(Cc3cccc4ccccc34)ccn12
4. Fc1ccc(-c2nn3c(OCC(F)(F)F)cccc3c2-c2ccncc2)cc1

Reply:
1. 0
2. 0
3. 0
4. 0

// each molecule listed below needs its %Inh
1. COc1ccc(Nc2nccc(N3CCC(NC(=O)Nc4cc(C)ccc4C)C3)n2)cc1 (stereo not drawn)
2. O=C(Nc1cccc(-c2nn3ncccc3c2-c2ccnc(Nc3cccc(C(F)(F)F)c3)n2)c1)c1c(F)cccc1F
3. O=C(NCCNc1ccnc(Nc2ccc(F)cc2)n1)c1cc2ccccc2s1
4. CCn1cnc2c(N)ncnc21

Reply:
1. 0
2. 100
3. 0
4. 6

// each molecule listed below needs its %Inh
1. Cc1cccc(-c2nc(Nc3ccc4ncsc4c3)c3ccccc3n2)n1
2. Cc1cn2c(=O)cc(N3CCOCC3)nc2n1Cc1cccc(Cl)c1Cl
3. CCCCCc1nc2c(N)ncnc2n1CCCCC
4. COc1ccc(Nc2nccc(N3CCC(NC(=O)Nc4cccc(C(C)=O)c4)C3)n2)cc1 (stereo not drawn)
5. O=C(c1ccc(-c2cc(-c3c[nH]nc3-c3ccccn3)ccn2)cc1)N1CCOCC1

Reply:
[0, 0, 0, 0, 0]
